Assay: soluble fraction after stress (log2 fold change); higher = more stays soluble; pooled small domains, quantitative proteomics;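 note: 20 min heating vs room temperature control held 20 min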
Conditions: stress: 75 degC
// soluble fraction (log2) lookup, one value per entry
measure: soluble fraction (log2)

- sequence-data: "HMGISEKVINIIETYTMIARKKYPSVKSLAEHFNVSERTVHRYLEIIKMIDVVDYDREKKGYFFPYGDR"
  measured-result: -3.08
- sequence-data: "HMGKEDISQINKLYQNQILDYETYIDTLNSFNIDTKSKDFKNLLDLFIKKSISFETFNKGIINIHNKS"
  measured-result: 0.328
- sequence-data: "HMGSEEMLGALGVVERATDDGDWWIAVHGEHWRARSAQALVPGDRVRVARIDGLTLTVTPIA"
  measured-result: -0.632
- sequence-data: "HMHRIKRRNDTLVSALDSIAGIGAKRKKALLQHFGSVRAIKAVSAEEIAKVEGISPTLANQIFEAL"
  measured-result: -1.07
- sequence-data: "HMESRDRVRQASAAGYRFMSTMAGHEPGFEEASRALFAGDQTAFEARITAWPVDVQTHLKKILAEAFTT"
  measured-result: -1.17
- sequence-data: "HMDPLGHVIKKKRLQLGMTLRDLAAKAGVHHATIDRIETDQFKVVDPSTLVKIAEALHLDQLYLLSLN"
  measured-result: -0.666
- sequence-data: "HMIVPPAIPFRALGIFGPRDRPIVTFEDGPRLINAREGDVLDGRFILRRVGRESVDFAFVGLPPEITRRIP"
  measured-result: -0.571
- sequence-data: "HMSQNVSFTVDSGQAGLRLDVFLSQADPAFSRSQIKYAIEEGDVTVNGKEPKVSQHLKDGDIVELHLE"
  measured-result: 0.0493

* * *

Test: soluble fraction after stress (log2 fold change); higher = more stays soluble; pooled small domains, quantitative proteomics
Conditions: stress: 75 degC

- sequence-data: "HMQIDRLFDIVYTLLRKKSATAAELAERFGVSKRTILRDIETLSVAGIPILTSPGKGGGVSISSSF"
  soluble fraction (log2): -0.892
- sequence-data: "HMGIAKYRQVTEWIQNRIATGELNRGDQIESENDISRTFGISRQTVRHALGLLEQQGILTRIQGRGTFVRD"
  soluble fraction (log2): -1.45
- sequence-data: "HMSDFEASDPALLREGMRVQHLNFGKGTVITIEGAGANKKASVAFDGVGTKQLMLRFARLKIIYE"
  soluble fraction (log2): -2.59
- sequence-data: "HMDTYDSIDSILEERHLSRRKLAQAIGLPPSTFQSMMSRKSGMTLEVLMKIVSYLQVSPDAFW"
  soluble fraction (log2): -3.17
- sequence-data: "HMEAEDLRDWVGARGIAYTALRPAGIAVVNGRRVDVVSEGAFVNRDDPVEVVRVEGRRIVVKP"
  soluble fraction (log2): -0.0876
- sequence-data: "HMSLLQDRQRHEALAALGYYRGSVSAAWGAASVEALKAAQAALGVEVDGKWGPKTEDVIQAALGT"
  soluble fraction (log2): -0.272
- sequence-data: "HMQEERDISFIKIHLEPGHPWRGRALRELMPLKDLLIVMVVRGEDTIVPNGDTRLEEGDLLVLAAYPFEE"
  soluble fraction (log2): -0.834
- sequence-data: "HMDVLFGNRLRQLLDERNISQAHFADRIGVSRSRMNNYVAQRSEPDYATLIRIANTLDTSIDFLLGKS"
  soluble fraction (log2): -2.36
- sequence-data: "HMATVIDVATTLGRPITDPDEQRQVLNWIGKTERIISARLGDLAALDRQILADVISEVVARRARN"
  soluble fraction (log2): -0.495
- sequence-data: "HMKLRYRTQEELLGVAREYRRRGLPLSVIVIDFYHWTKFGDWKFDPAYWPDPVGMVRELRDMGVEAAV"
  soluble fraction (log2): -0.17
- sequence-data: "HMAQKQLYIAGTDYTKNSTSQLVLAYFPAKPSSIKIFFDGIYQNKDKWSLFGKTIIFGLPISSNAVEVHYE"
  soluble fraction (log2): -4.34
- sequence-data: "HMSLPKVLVPTDITVSQLAKYLEVDAIAIVKKLFGLGVVASLNQRLENEQMQLLGQEFGKDIIFTEN"
  soluble fraction (log2): -1.39
- sequence-data: "HMKSEIRKKNSQIILDAAEHEFSVHGYRGTSVQMIADRSGLPKANLHYYYKSKSALYGAVLDRIL"
  soluble fraction (log2): 0.215
- sequence-data: "HMIDQIAEQLQQRLAVDTAFATIQRDYPDVIANKDIELLTAIKVNQKIAEGASRASAMLESAKEVYETL"
  soluble fraction (log2): 0.196
- sequence-data: "HMKQEFEMGLPNGVGEQMLAHAIEKFDVKLEHSEFGPKLIGTYEELEKAKVFLYEAIEARLNQLE"
  soluble fraction (log2): 0.279
- sequence-data: "HMREYEKAVDYVRRMISSGSLNVGDRLPTERELSLELDISRNSTREAMRMLENMGIIVSRHGSGNYISGN"
  soluble fraction (log2): -0.682
- sequence-data: "HMEKEKIKEALIGYFEAEPEEKFTVQELADKLKMNKAGQFNFVVQAVAQLEHDKVITLDDEGNFSLVRHE"
  soluble fraction (log2): 0.176
- sequence-data: "HMATPSTGQVSVVRLNLRVSPSISSPVVTRLTQGDTVKILAASDDGRWYKVATADGRTGWLYTIYITAE"
  soluble fraction (log2): -1.34
- sequence-data: "HMSTTHLTASVIKDKVNVRSEADSQNGAIIDKARTGERLLVTDYGNKWTGIVLPDGKRGYIMTEYLQF"
  soluble fraction (log2): -0.114
- sequence-data: "HMPGLDTTILSDILSLKKELPSRSAAKILIMLILAKRIEEGSLNLRTINRILNQYGYTRESLL"
  soluble fraction (log2): 0.144
- sequence-data: "HMSLNNAHNTIFPRIIELMEMKQLENVLLIGGGIIPRKDIESLESSGVTKLYGPGTPVKETIEFITNWVK"
  soluble fraction (log2): -0.216
- sequence-data: "HMKQISNTDELETMVKKIIDDNEEQVNKYRGGNEKLFGWFVGQAMKNTGGTANPKVVNEILSKLLK"
  soluble fraction (log2): -0.0646
- sequence-data: "HMDLFSAVVHHIVGQQISTKAQATIWKRMRDEFGVVDAAAVLGAGVEKLQSFGMTFRKAEYITDFARKIE"
  soluble fraction (log2): -2.61
- sequence-data: "HMQNDILIQADEIVGDYFDMDKEALKMNKQAVIADIEKRQATAQGDEASALHYAKQKVENEFEDDGSQKD"
  soluble fraction (log2): 0.109
- sequence-data: "HMSLSDADVERLLEVAIDIESLEEREGLYYQANESEPYSGWGKLMYDSGQVERLVPYKDGRWEGLWTIW"
  soluble fraction (log2): -1.07
- sequence-data: "HMDDADPYEILGVERDAEDAEIKRAYHDLIRENHPDRLMAEGLPQEMIDVANEKVAFINDAYDRIEKLRGM"
  soluble fraction (log2): -0.193
- sequence-data: "HMNPLHYKAAHWVREGLFDDLKSFVELETRINSIFEEKDRGDVFEIFIEGYRSFSKWRALVLRLA"
  soluble fraction (log2): -0.365
- sequence-data: "HMISESIPAKDALLRLLNTAYQTRTNAAGEFYFNDVPPGKYILQASVNDVEIIRENISINEN"
  soluble fraction (log2): -0.377
- sequence-data: "HMTGIESVKPSSDFTVEGNRIVAGDAEVEVYDLAGRKVNNNNLTTGVYIAKIAGSAESVKVFV"
  soluble fraction (log2): 0.144
- sequence-data: "HMKGVENLSDIDIQKALNNARANLSKNKAKLEQAGDDEKKKASALAMIQKWETTKKAIEEEIEARKKKSLN"
  soluble fraction (log2): -0.491
- sequence-data: "HMQPQYSVLFSNIEEKDGGSIITLLQQGNVPYKVENGGTTILVPANRANELRLTLAAQGLPK"
  soluble fraction (log2): 0.449
- sequence-data: "HMDLDIQNYNLDEILELFKVSYDFDETELKKAHKMYLMTHPDKSNLNPNIFLFFVQAYDILRKLYEFR"
  soluble fraction (log2): -0.691
- sequence-data: "HMAFGTGTVTASSLRVREDASTSAATLDTLSKGSKVSVLADEQDGFYKVQIGEQVGYMSAEYLDVTE"
  soluble fraction (log2): 0.00175

* * *

Assay: soluble fraction after stress (log2 fold change); higher = more stays soluble; pooled small domains, quantitative proteomics
Conditions: stress: 75 degC
Hi, to clarify the labels: MET covers soluble fraction (log2) from 0.01 upward, NOT MET covers anything below 0.01.

- sequence-data: "HMTEELQDMESRIIEAAKRVFVRKGYEATKMSDIALEVGLGRTALHYYFRTKEMLFDAIFGRLMGV"
  discrete-label: "NOT MET"
- sequence-data: "HMDFRVGVWVELVQQRRSVRTQLTWVSPQHTLFLFTAKDGSTQSMTLRMRDKLLAEGNLRIVAPPSR"
  discrete-label: "NOT MET"
- sequence-data: "HMGMGDALRILFNQAMLIEREQYLQAGAYERNENPVNYANGFKAKTLNTRVGALEVAVPQTRDSAFYPSFL"
  discrete-label: "MET"
- sequence-data: "HMTSTSVKYVNSSSGLNVRKGPSTSYDKVTTLVNGTKVTVISTNNGWSKITSGSITGYVSSQYLSSSS"
  discrete-label: "NOT MET"
- sequence-data: "HMKNLTERQQRIIALISENPQTTRAEIAGAIGVATKTIERELTTLSNIVYYVGPKKGGHWEIIK"
  discrete-label: "NOT MET"
- sequence-data: "HMNKNNLRNVSSKIRKSRRVLNLSQAELSKKLDISPSYLNLIESGKRPITVPLLIKLGNILGISLKDL"
  discrete-label: "NOT MET"
- sequence-data: "HMEIEIPEELQNKFAEIPELKTAFESLTPGRQRAYVLYFSQPKQSKTREARIEKYIPHILDGKGMN"
  discrete-label: "MET"
- sequence-data: "HMEFTVFMNSAGGSKLQVVKTVKELTGLGLKEAKAIVDGSPGPVKEGLSKADAEAMLAKLQEAGADVEL"
  discrete-label: "MET"
